From: a collection of fitness landscapes (doi:10.1126/science.1257360)

Each entry below lists one item and its recorded enrichment ratio value.
B1: PhoQ; a variant is named by its letters at X, in order, P23837 (parent)
chain: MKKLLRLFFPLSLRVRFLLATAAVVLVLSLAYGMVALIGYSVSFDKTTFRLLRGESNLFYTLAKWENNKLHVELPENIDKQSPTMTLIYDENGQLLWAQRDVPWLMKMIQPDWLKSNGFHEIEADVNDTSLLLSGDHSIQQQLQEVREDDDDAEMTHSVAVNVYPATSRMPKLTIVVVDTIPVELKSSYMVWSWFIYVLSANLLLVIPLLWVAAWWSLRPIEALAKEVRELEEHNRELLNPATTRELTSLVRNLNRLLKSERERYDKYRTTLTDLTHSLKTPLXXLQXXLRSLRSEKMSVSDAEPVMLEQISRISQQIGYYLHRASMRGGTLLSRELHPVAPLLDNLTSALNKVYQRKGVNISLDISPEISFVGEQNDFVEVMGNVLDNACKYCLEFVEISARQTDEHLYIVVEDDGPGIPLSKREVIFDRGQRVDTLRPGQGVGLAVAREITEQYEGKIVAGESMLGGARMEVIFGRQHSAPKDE

Variants of: B1
Assay text: enrichment ratio after two sorts for PhoP signalling (ratio (wild type AVST 3.29)); higher = more functional
Test context: with PhoP (E. coli)
Over roughly 140,000 sequences, “enrichment ratio after two sorts for PhoP signalling” has its median near 0; the highest 2% begin near 11. Shown is part of a subset that was picked to be rich in the highest values.

Example results:
Mutation: MMGP
enrichment ratio: ≤ 0.25

Mutation: SGKR
enrichment ratio: ≤ 0.25

Reported enrichment ratio for `STPW` was ≤ 0.25

Reported enrichment ratio for `KSAI` was ≤ 0.25

Reported enrichment ratio for `IQQW` was ≤ 0.25

Reported enrichment ratio for `CFAI` was ≤ 0.25

Reported enrichment ratio for `NHAI` was ≤ 0.25

Reported enrichment ratio for `EEMP` was ≤ 0.25

Reported enrichment ratio for `LWVM` was ≤ 0.25

Reported enrichment ratio for `KYLQ` was ≤ 0.25

Reported enrichment ratio for `DLFL` was ≤ 0.25

Reported enrichment ratio for `SPLQ` was ≤ 0.25

Reported enrichment ratio for `DAPE` was ≤ 0.25
